molecular target: hErbB3.mmh (soluble monomeric human ErbB3 extracellular domain with C-terminal myc-myc-hexahistidine tag) (human, UniProt P21860 20-642); assay: SPR (Biacore), 25 C, mAb capture format
Sequence (P21860 other isoform, or with tags, fused parts or gaps): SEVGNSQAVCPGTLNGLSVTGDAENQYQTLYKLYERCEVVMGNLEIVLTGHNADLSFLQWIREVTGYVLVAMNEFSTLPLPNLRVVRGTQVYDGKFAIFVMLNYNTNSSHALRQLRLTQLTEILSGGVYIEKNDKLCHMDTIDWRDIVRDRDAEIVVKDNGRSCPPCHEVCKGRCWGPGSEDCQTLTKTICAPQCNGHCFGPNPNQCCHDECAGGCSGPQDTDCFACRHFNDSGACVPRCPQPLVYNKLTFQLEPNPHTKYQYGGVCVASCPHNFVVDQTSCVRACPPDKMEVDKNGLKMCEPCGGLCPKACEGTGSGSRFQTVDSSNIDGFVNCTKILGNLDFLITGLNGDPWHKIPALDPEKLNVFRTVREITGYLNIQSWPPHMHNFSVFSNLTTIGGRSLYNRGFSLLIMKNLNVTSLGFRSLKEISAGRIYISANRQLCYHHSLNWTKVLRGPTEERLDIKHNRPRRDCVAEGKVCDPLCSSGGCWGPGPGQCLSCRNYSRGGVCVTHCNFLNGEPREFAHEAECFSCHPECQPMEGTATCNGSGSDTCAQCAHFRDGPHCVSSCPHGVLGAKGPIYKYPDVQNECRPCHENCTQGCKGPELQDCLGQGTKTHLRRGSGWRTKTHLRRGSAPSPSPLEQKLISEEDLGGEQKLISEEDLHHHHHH
measured_endpoint: kon (M⁻¹ s⁻¹)
# value in M⁻¹ s⁻¹; strip the unit string

Q) # input binder: H4H2148P (antibody, V domains shown, Fully human, human IgG4 Fc (H4H prefix)) VH: EVQLVESGGGLVHPGRSLRLSCAASGFTFDDYAMHWVRQSPGKGLEWVSGISWNSVIKHSTDSVRGRFTISRDNAKNSLYLQMNSLKPEDTAFYYCAKDEDDWNYLDYWGQGTLVTVSS VL: DIQMTQSPSSVSASVGDRVTITCRASQDINSWLAWYQQKPGKAPKLLIYTSSNLQSGVPSRFSGSGSGTDFTLTISSLQPEDFATYYCQQSDSFPFTFGPGTKVDIKR ; wanted: its kon
A) 3.98e+06

Q) Request: H2M1930N (antibody, V domains shown, Hybridoma chimeric antibody: human variable domains, mouse IgG2 Fc (H2M prefix)) VH: EVQLVESGGGLVKPGGSLRLSCVASGFTFSSYNMNWVRQAPGKGLEWVSFISGSSNYIHYADSVKGRFTISRDNAKNALYLQMNSLRAEDTAVYYCARDDGDYDWFDPWGQGTLVTVSS VL: EIVLTQSPGTLSLSPGERATLSCRASQSVSSSYLAWYQQKPGQAPRLLIYGTSSRATGIPDRFSGSGSGTDFTLTISRLEPEDFAVYYCQQYDNSYTFGQGTKLEIK
A) 196000

Q) Request: H1M1940N (antibody, V domains shown, Hybridoma chimeric antibody: human variable domains, mouse constant domains (H1M prefix, mouse Fc)) VH: QVQVVESGGGVVQPGRSLRLSCAASGFTFSDYGMHWVRQAPGKGLEWVAIISYDGSNKYYADSVKGRFTVSRDNSKNTLYLQLDSLRPEDAAVFYCAREGAFNLDYYAMDVWGQGTTVTVSS VL: AIQMTQSPSSLSASVGDRVTITCRASQDIRNDLGWYQQKPGKAPNLLIYAASSLQSGVPSRFSGSGSGTDFTLTISSLQPEDFATYYCLQDSNYPLTFGGGTKVEIK
A) 289000
